Test system: ANKA strain of P. berghei
Assay overview: single dose STI in vivo screen in infected mice
Design: species or system Plasmodium berghei
Condition details: single 10 mg/kg po in 3% ethanol and 7% Tween 80; untreated control 5.6 ± 0.3
Survival (days) po strictly less than 7 days = T. Otherwise F.

| Molecule | Category label |
| --- | --- |
| O=C(O)CCC(=O)N[C@H]1CC[C@]2(CC1)OOC1(O2)C2CC3CC(C2)CC1C3 (stereo partly shown) | T |
| CCOC(=O)N1CCC2(CC1)OOC1(O2)C2CC3CC(C2)CC1C3 (stereo not shown) | F |
| S=C(Nc1ccccc1)N1CCC2(CC1)OOC1(O2)C2CC3CC(C2)CC1C3 (stereo not shown) | F |
| C=C1COC2(CCC3(CC2)OOC2(O3)C3CC4CC(C3)CC2C4)OC1 (stereo not shown) | F |
| FC(F)(F)c1cccc(C2(c3cccc(C(F)(F)F)c3)OOC3(O2)C2CC4CC(C2)CC3C4)c1 (stereo not shown) | F |
| CN(C)C(=O)N[C@H]1CC[C@]2(CC1)OOC1(O2)C2CC3CC(C2)CC1C3 (stereo partly shown) | F |
| CON=C1CCC2(CC1)OOC1(O2)C2CC3CC(C2)CC1C3 (stereo not shown) | F |
| OC1CCC2(CC1)OOC1(O2)C2CC3CC(C2)CC1C3 (stereo not shown) | T |
| O=C1c2ccccc2C(=O)N1C[C@H]1CC[C@@]2(CC1)OOC1(O2)C2CC3CC(C2)CC1C3 (stereo partly shown) | T |
| O=C(O)c1cccc([C@H]2CC[C@]3(CC2)OOC2(O3)C3CC4CC(C3)CC2C4)c1 (stereo partly shown) | T |
| CC1(C)CC(NC2CCC3(CC2)OOC2(O3)C3CC4CC(C3)CC2C4)CC(C)(C)N1 (stereo not shown) | F |
| c1ccc2c(c1)-c1ccccc1C21OOC2(O1)C1CC3CC(C1)CC2C3 (stereo not shown) | T |
| CC(C)(C)NC(=O)N[C@H]1CC[C@]2(CC1)OOC1(O2)C2CC3CC(C2)CC1C3 (stereo partly shown) | F |
| C1CC2(CCO1)OOC1(O2)C2CC3CC(C2)CC1C3 (stereo not shown) | T |
| O=C(O)c1ccc(C[C@H]2CC[C@]3(CC2)OOC2(O3)C3CC4CC(C3)CC2C4)cc1 (stereo partly shown) | T |

====

Listing: % reduction of adult worms growth at day 49 after per os application of 400 mg/kg, TWR (%) of selected compounds
Tested on: Schistosoma mansoni adult schistosomes (49-day-old)
Assay overview: effect on adult schistosomes (49-day-old) in mice
Format: in vivo
Condition details: single 400 mg/kg per os
Outcome measure: % reduction of adult worms growth at day 49 after per os application of 400 mg/kg, TWR (%)

| Compound | Observed result |
| --- | --- |
| CCN(CC)CC[C@H]1CC[C@]2(CC1)OOC1(O2)C2CC3CC(C2)CC1C3 (some centres unmarked) [OZ126] | 0 |
| O=C(O)CNC[C@H]1CC[C@]2(CC1)OO[C@]1(O2)C2CC3CC(C2)CC1C3 [OZ309] | 19 |
| NCCOc1ccc([C@H]2CC[C@]3(CC2)OO[C@]2(O3)C3CC4CC(C3)CC2C4)cc1 [OZ323] | 20 |
| c1ccc(C2CCC3(CC2)OOC2(O3)C3CCCC2CCC3)cc1 (centres unmarked) [OZ67] | 38 |
| CO[C@H]1O[C@@H]2O[C@@]3(C)CC[C@H]4[C@H](C)CC[C@@H]([C@H]1C)[C@@]24OO3 [AM, artemether, reference compound] | 53 |
| O=C([C@H]1CC[C@]2(CC1)OOC1(O2)C2CC3CC(C2)CC1C3)N1CCN(c2ccccc2)CC1 (some centres unmarked) [OZ140] | 0 |
| NCC(=O)NC[C@H]1CC[C@]2(CC1)OO[C@]1(O2)C2CC3CC(C2)CC1C3 [OZ271] | 0 |
| CCCC1CCC2(CC1)OOC1(O2)C2CC3CC(C2)CC1C3 (centres unmarked) [OZ25] | 46 |
| Cc1ccc(S(=O)(=O)O)cc1.O=C(C[C@H]1CC[C@]2(CC1)OO[C@]1(O2)C2CC3CC(C2)CC1C3)N1CCNCC1 [OZ279] | 0 |
| c1ccc(C2(c3ccccn3)OOC3(O2)C2CC4CC(C2)CC3C4)nc1 (centres unmarked) [OZ81] | 28 |
| O=S1(=O)CCC2(CC1)OOC1(O2)C2CC3CC(C2)CC1C3 (centres unmarked) [OZ50] | 12 |
| CC1(C)COC(c2ccc([C@H]3CC[C@]4(CC3)OOC3(O4)C4CC5CC(C4)CC3C5)cc2)=N1 (some centres unmarked) [OZ154] | 58 |
| O=[N+]([O-])c1cccc(C2(c3cccc([N+](=O)[O-])c3)OOC3(O2)C2CC4CC(C2)CC3C4)c1 (centres unmarked) [OZ105] | 8 |
| O=C1CN(C[C@H]2CC[C@]3(CC2)OOC2(O3)C3CC4CC(C3)CC2C4)CCN1 (some centres unmarked) [OZ285] | 17 |
| OC1(c2ccc(F)cc2)CCC2(CC1)OOC1(O2)C2CC3CC(C2)CC1C3 (centres unmarked) [OZ76] | 32 |
| CC(C)(N)C(=O)NC[C@H]1CC[C@]2(CC1)OOC1(O2)C2CC3CC(C2)CC1C3 (some centres unmarked) [OZ281] | 12 |
| O=C1COC2(CCC3(CC2)OOC2(O3)C3CC4CC(C3)CC2C4)OC1 (centres unmarked) [OZ130] | 0 |
| CC1(C)COC2(CCC3(CC2)OOC2(O3)C3CCCC2CCC3)OC1 (centres unmarked) [OZ68] | 17 |
| Clc1ccc(C2(c3ccc(Cl)cc3)OOC3(O2)C2CC4CC(C2)CC3C4)cc1 (centres unmarked) [OZ43] | 1 |
| CC1(C)COC2(CCC3(CC2)OOC2(O3)C3CC4CC(C3)CC2C4)OC1 (centres unmarked) [OZ11] | 16 |
| CCOC(=O)N1CCC2(CC1)OOC1(O2)C2CC3CC(C2)CC1C3 (centres unmarked) [OZ23] | 0 |
| CON=C1CCC2(CC1)OOC1(O2)C2CC3CC(C2)CC1C3 (centres unmarked) [OZ15] | 0 |
| O=C(NC[C@H]1CC[C@]2(CC1)OO[C@]1(O2)C2CC3CC(C2)CC1C3)N1CCNCC1 [OZ329] | 15 |
| C1=C(c2ccccc2)CCC2(C1)OOC1(O2)C2CC3CC(C2)CC1C3 (centres unmarked) [OZ226] | 52 |
| O=C1CC2CC3(CC2C1)OOC1(O3)C2CC3CC(C2)CC1C3 (centres unmarked) [OZ12] | 14 |
| Cc1ccc(S(=O)(=O)O)cc1.NC[C@H]1CC[C@]2(CC1)OOC1(O2)C2CC3CC(C2)CC1C3 (some centres unmarked) [OZ207] | 35 |
| c1ccc(C[C@H]2CC[C@]3(CC2)OOC2(O3)C3CC4CC(C3)CC2C4)cc1 (some centres unmarked) [OZ156] | 0 |
